# Method summary: Long-term accelerated stability test (Test Example 3), sealed in aluminum foil bags
# Format: physicochemical
# Condition label: 40°C-75%RH, 7 days
Where a name gives a salt, the structure may show the parent alone.
Value type: Crystal form

>>> test_value("O=C(O)[C@@H](Cc1cccc(CN(CCOc2cccc(C[C@H](C(=O)O)[C@H]3CCNC3)c2)Cc2cccc(C[C@H](C(=O)O)[C@H]3CCNC3)c2)c1)[C@H]1CCNC1 [hydrochloride (1:1) crystal form e]")
"Unchanged"
>>> test_value("Cl.Cl.Cl.Cl.O=C(O)[C@@H](Cc1cccc(CN(CCOc2cccc(C[C@H](C(=O)O)[C@H]3CCNC3)c2)Cc2cccc(C[C@H](C(=O)O)[C@H]3CCNC3)c2)c1)[C@H]1CCNC1 [hydrochloride (1:4) amorphous form]")
"Unchanged"
>>> test_value("O=C(O)[C@@H](Cc1cccc(CN(CCOc2cccc(C[C@H](C(=O)O)[C@H]3CCNC3)c2)Cc2cccc(C[C@H](C(=O)O)[C@H]3CCNC3)c2)c1)[C@H]1CCNC1 [hydrochloride (1:1) crystal form a]")
"Unchanged"
